Test system: NCI-H226 lung
Assay: NCI tumour cell line growth inhibition, 48 h
# reported GI50; entries follow

Reference set, count: 4
Nc1ccccc1SC1CC(=O)N(c2ccc(Cl)c(Cl)c2)C1=O (stereo not given) :: 14.6 µM
O=c1[nH]c(=O)n([C@H]2CCCO2)cc1F :: 3650 µM
CC/C=C/C/C=C/C/C=C/C/C=C/C/C=C/C/C=C/CCC(=O)Nc1ccn([C@@H]2O[C@H](CO)[C@@H](O)C2(F)F)c(=O)n1 :: 0.228 µM
COc1ccc(Cc2cnc(NC(=O)c3ccc4c(c3)OCCO4)s2)cc1 :: 1.72 µM

Then there is this compound:
QUERY: Request the reported GI50 associated with O=C(NCc1ccc(S(=O)(=O)c2cc(F)cc(F)c2)cc1)c1ccc2nccn2c1
RESULT: > 46 µM
